Molecular target: T1, human transferrin receptor (recombinant, for surface plasmon resonance) (human, UniProt P02786 89-760)
T1 construct: also called huTfR; human transferrin receptor-biotinylated
T1 sequence (P02786 89-760 limits assumed): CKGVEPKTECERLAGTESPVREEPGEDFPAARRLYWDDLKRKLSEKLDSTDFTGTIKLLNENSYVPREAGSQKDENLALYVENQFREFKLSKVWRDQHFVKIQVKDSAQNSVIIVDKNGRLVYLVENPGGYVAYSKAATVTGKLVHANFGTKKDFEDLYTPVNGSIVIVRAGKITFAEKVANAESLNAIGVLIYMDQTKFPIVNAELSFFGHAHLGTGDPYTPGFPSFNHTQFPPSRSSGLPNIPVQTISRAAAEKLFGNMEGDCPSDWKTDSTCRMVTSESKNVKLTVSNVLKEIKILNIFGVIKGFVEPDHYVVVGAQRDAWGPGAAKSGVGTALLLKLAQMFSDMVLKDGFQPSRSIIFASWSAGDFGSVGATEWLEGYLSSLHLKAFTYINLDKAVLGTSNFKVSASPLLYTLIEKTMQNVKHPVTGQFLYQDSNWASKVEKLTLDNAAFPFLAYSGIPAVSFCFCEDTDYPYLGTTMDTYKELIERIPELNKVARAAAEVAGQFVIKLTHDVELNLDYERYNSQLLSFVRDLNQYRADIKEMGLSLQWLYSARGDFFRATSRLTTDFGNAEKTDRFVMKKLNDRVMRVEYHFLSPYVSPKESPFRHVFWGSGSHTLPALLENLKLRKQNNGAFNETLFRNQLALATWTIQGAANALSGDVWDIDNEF
Assay: SPR 25C
test readout: koff

Record 2/99 VH18/VL8 (antibody, V domains shown) VH: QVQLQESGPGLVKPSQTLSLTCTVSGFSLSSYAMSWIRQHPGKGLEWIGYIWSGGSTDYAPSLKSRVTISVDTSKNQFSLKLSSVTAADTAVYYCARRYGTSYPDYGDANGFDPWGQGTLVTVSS VL: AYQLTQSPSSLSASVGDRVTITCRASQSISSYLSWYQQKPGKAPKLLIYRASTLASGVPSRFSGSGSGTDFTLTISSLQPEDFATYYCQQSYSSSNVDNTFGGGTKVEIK . Reported koff: 0.00677 s⁻¹

Now for another entry.
Record 2/99 VH21/VL6 (antibody, V domains shown) VH: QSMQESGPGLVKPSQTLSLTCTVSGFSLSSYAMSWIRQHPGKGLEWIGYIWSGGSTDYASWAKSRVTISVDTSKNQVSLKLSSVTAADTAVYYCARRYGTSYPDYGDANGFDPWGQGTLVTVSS VL: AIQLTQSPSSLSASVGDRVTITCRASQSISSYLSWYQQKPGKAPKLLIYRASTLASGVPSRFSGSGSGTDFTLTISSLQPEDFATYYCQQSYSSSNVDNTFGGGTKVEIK . Reported koff: 0.00207 s⁻¹
